assayed.target: Prostaglandin D2 receptor 2 (Homo sapiens)
Sequence (Q9Y5Y4 whole entry): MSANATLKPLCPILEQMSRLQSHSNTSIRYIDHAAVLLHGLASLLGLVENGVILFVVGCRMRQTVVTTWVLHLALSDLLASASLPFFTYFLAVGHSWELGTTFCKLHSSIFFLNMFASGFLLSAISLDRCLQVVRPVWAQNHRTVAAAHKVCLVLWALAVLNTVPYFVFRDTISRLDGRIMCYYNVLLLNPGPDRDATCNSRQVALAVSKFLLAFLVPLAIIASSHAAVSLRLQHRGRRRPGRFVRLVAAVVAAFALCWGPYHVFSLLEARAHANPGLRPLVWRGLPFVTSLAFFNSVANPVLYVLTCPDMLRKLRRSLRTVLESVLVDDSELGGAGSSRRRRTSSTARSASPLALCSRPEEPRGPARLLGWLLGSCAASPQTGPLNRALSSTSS
protocol.description: Displacement of [3H]PGD2 from human CRTh2 receptor
measured.property: IC50 (nM)

Some compounds with recorded IC50:
[
  {
    "chemical.smiles": "Cc1cccc2c(/C=C(\\C#N)C(=O)N(C)c3ccccc3)cn(CC(=O)O)c12",
    "assayed.target": "Prostaglandin D2 receptor 2 (Homo sapiens)",
    "quantitative.result": 140
  },
  {
    "chemical.smiles": "CN(C(=O)/C(C#N)=C/c1cn(CC(=O)O)c2cc(Cl)ccc12)c1ccccc1",
    "assayed.target": "Prostaglandin D2 receptor 2 (Homo sapiens)",
    "quantitative.result": 290
  },
  {
    "chemical.smiles": "CC(=O)N1CCc2c(c3ccccc3n2CC(=O)O)C1",
    "assayed.target": "Prostaglandin D2 receptor 2 (Homo sapiens)",
    "quantitative.result": 1600
  }
]

I. O=C(O)Cn1cc(/C=C(\Cl)C(=O)Nc2ccccc2)c2ccccc21
II. N#C/C(=C\c1cn(CC(=O)O)c2ccccc12)C(=O)N(CCc1ccccc1)c1ccccc1
*Q* Kindly compare I with II and tell me which has the lower IC50 figure. Please respond with the label that marks your chosen entry.
*A* II
